Biological target: CDK2/cyclinE (Homo sapiens)
Construct: C-terminal 6His-tagged, recombinant full-length CDK2 (MW=34 kDa); 6His (C)
Experiment: CDK activity assay with p33 ATP, CDK2/cyclinE
Settings: 1 μM ATP
pIC50: −log10 of the molar value.
property.measured: pIC50

Challenge: Recorded pIC50 of "CC(C)(C)c1cnc(CSc2cnc(NC(=O)C3CCN(CCCCCC(=O)NO)CC3)s2)o1" , please.
Response given: > 7.00

Challenge: Look up pIC50: "CC(C)(C)c1cnc(CSc2cnc(NC(=O)C3CCN(c4ncc(C(=O)NO)cn4)CC3)s2)o1"
Response given: > 7.00

Challenge: Which pIC50 is listed for "CC(C)(C)c1cnc(CSc2cnc(NC(=O)CCCCCCC(=O)NO)s2)o1" ?
Response given: > 7.00

Challenge: Please look up its pIC50: "CC(C)(C)c1cnc(CSc2cnc(NC(=O)CCCNCCC(=O)NO)s2)o1"
Response given: > 7.00

Challenge: Given the entry "CC(C)(C)c1cnc(CSc2cnc(NC(=O)C3CCN(CCCCCCC(=O)NO)CC3)s2)o1" , report its measured pIC50.
Response given: > 7.00

Challenge: Which pIC50 is listed for "CC(C)(C)c1cnc(CSc2cnc(NC(=O)Oc3ccc(OCCCC(=O)NO)cc3)s2)o1" ?
Response given: > 7.00

Challenge: Recorded pIC50 for "CC(C)(C)c1cnc(CSc2cnc(NC(=O)Cc3ccc(OCCCCC(=O)NO)cc3)s2)o1" , please?
Response given: > 7.00
